test-protocol: Cmax in Sprague-Dawley rat at 1 mg/kg, iv measured upto 24 hrs by LC-MS/MS analysis
Format: ADME, organism-based
Design: route intravenous, dose 1 mg/kg, time <=24
condition: in vivo
measurement-kind: Cmax
For clarity, give the value followed by its unit.

Supply measured Cmax of C=CC(=O)Nc1ccccc1Nc1ccc2c(C(=O)c3cc(OC)cc(OC)c3)c[nH]c2n1 in your reply. 361 ng/mL

###

test-protocol: MRTlast in Sprague-Dawley rat at 10 mg/kg, po measured upto 24 hrs by LC-MS/MS analysis
Assay type: ADME, organism-based
condition: in vivo
measurement-kind: MRT last at 24 h (h)
Give the value in h but do not write h after it.

Supply measured MRT last at 24 h of C=CC(=O)Nc1ccccc1Nc1ccc2c(C(=O)c3cc(OC)cc(OC)c3)c[nH]c2n1 in your reply. 3.79

Where do these numbers come from? They come from ChEMBL document CHEMBL4673307.
